Molecular target: SBD2 (Lactococcus lactis, UniProt Q9CES5)
Sequence (Q9CES5 253-484 limits assumed): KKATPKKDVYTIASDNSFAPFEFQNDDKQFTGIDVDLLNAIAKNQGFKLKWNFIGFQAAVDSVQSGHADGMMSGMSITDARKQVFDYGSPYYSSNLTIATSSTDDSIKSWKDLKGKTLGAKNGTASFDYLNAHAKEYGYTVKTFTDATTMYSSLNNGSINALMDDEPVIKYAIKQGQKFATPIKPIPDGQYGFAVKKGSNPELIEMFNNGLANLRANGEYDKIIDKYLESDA
Assay: single-molecule ClyA nanopore current, relative closed population
recorded_metric: pKd
Value format note: pKd is -log10 of concentration (mol/L); just state the number.

Problem: What value of pKd has been recorded for this entry: NC(=O)CC[C@H](N)C(=O)O [glutamine]
Solution: 6.08
